Tested on: UA sulfation
Experiment: Inhibition of UA sulfation (formation of UA-sulfate by HPLC-MS)
Assay type: biochemical
Conditions: UA concentration 2 μM; triplicate; Hill equation
Description: FIG. 5. IC50 of glycyrrhetinic acid. UA concentration was 2 μM. Determination was done in triplicate. Table 1. IC50 values for several inhibitors of UA sulfation. UA concentration was 2 μM. Determinations were done in triplicate, and formation of UA-sulfate was determined by HPLC-MS followed by nonlinear regression with the Hill equation.
# Hill slope per record follows
Answer with a bare number; do not write a unit.

Any idea what its Hill slope is? The compound is CC(=O)O[C@H]1CC[C@@]2(C)C(=CC(=O)[C@@H]3[C@@H]2CC[C@]2(C)C(=O)CC[C@@H]32)C1 [7-oxo-DHEA acetate]
1.2

Can you look up the measured Hill slope of CC1(C)[C@@H](O)CC[C@]2(C)[C@H]3C(=O)C=C4[C@@H]5C[C@@](C)(C(=O)O)CC[C@]5(C)CC[C@@]4(C)[C@]3(C)CC[C@@H]12 [Glycyrrhetinic acid] for me?
4.8

What Hill slope value was documented for this compound, C[C@]12CC[C@H](O)CC1=CC[C@@H]1[C@@H]2CC[C@]2(C)C(=O)CC[C@@H]12 [DHEA, dehydroepiandrosterone] ?
1.4

Quick one: Hill slope of C=C1C[C@@]23CC[C@H]4[C@@](C)(CCC[C@@]4(C)C(=O)O)[C@@H]2CC[C@]1(O)C3 [Steviol] ?
1.4

So what's the measured Hill slope for this one? C[C@]12CC[C@H](O)CC1=CC(=O)C1C2CC[C@]2(C)C(=O)CCC12 (stereo partly drawn) [7-oxo-DHEA]
1.2

Continue with the next compound.
Item C[C@H]1CC[C@]2(NC1)O[C@H]1C[C@H]3[C@@H]4CC[C@H]5C[C@@H](O)CC[C@]5(C)[C@H]4CC[C@]3(C)[C@H]1[C@@H]2C [Tomatidine] has what recorded Hill slope?
0.5
